Sourced from ChEMBL document CHEMBL3804782

- METHOD_SUMMARY: Ratio of drug level in rat brain to plasma at 1 mg/kg, po after 5 hrs
- Format: ADME, organism-based
- CONDITION_DESCRIPTION: read-out: BPR
ASSAY_READOUT: Kp at 5 h

[
  {
    "STRUCTURE_SMILES": "COc1cnc(C(=O)Nc2cc(F)c(F)c([C@]3(C)C[C@@H](c4c(C)noc4C)SC(N)=N3)c2)cn1",
    "ASSAY_READOUT": "Kp at 5 h",
    "RESULT": 0.44
  }
]

----------
- METHOD_SUMMARY: Plasma concentration in rat at 3 mg/kg, po after 5 hrs
- Format: ADME, organism-based
ASSAY_READOUT: concentration at 5 h (nM)

[
  {
    "STRUCTURE_SMILES": "COc1cnc(C(=O)Nc2cc(F)c(F)c([C@]3(C)C[C@@H](c4c(C)noc4C)SC(N)=N3)c2)cn1",
    "RESULT_UNITS": "nM",
    "QUANTITATIVE_READOUT": 360
  }
]
